Molecular target: human PTH1 receptor (Homo sapiens, UniProt Q03431)
Sequence (Q03431 27-593): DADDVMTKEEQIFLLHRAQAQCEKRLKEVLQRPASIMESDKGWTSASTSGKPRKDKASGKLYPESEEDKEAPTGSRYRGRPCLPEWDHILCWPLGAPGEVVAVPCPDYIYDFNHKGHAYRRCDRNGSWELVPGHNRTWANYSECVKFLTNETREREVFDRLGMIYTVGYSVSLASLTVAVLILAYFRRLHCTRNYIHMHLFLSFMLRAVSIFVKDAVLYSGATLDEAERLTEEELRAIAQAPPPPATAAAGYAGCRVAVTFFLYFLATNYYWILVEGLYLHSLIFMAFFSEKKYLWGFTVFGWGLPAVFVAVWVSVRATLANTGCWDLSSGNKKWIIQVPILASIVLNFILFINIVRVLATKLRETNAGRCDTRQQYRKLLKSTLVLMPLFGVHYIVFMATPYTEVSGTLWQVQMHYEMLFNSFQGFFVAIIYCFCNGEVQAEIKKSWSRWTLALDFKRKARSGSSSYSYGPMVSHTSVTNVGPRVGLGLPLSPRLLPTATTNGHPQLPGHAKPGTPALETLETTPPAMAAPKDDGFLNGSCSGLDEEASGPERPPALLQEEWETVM
Test: In vitro cAMP signal activity in HKRK-B7 cells (LLC-PK1 cells overexpressing the human PTH1 receptor)
Type: cell-based
Settings: HKRK-B7 cells; compound at 1×10^−3 M; cAMP produced as percentage of that produced by hPTH(1-34) at 100 nM
Recorded cAMP production activity (%), one value per entry.
endpoint.name: cAMP production activity (%)

| compound | value.units | test.result |
| --- | --- | --- |
| CC(=O)Nc1ccc(CCS(=O)(=O)N2CCC3(CC2)N=C([C@H]2CC[C@H](CCF)CC2)NC3=O)c(C)c1 | % | 55 |
| Cc1cc(C(=O)N2CCN(C)CC2)ccc1CCS(=O)(=O)N1CCC2(CC1)N=C(c1cccc(C(F)(F)F)c1)NC2=O | % | 99 |
| CC(=O)NC(C)c1ccc(/C=C/S(=O)(=O)N2CCC3(CC2)N=C(C2CCCCC2)NC3=O)cc1 (stereo not shown) | % | 38 |
| CCc1cc(N(C)C(N)=O)ccc1/C=C/S(=O)(=O)N1CCC2(CC1)N=C(C1CCC(C)CC1)NC2=O (stereo not shown) | % | 52 |

* * *

Target: human PTH1 receptor (Homo sapiens, UniProt Q03431)
Sequence (Q03431 27-593): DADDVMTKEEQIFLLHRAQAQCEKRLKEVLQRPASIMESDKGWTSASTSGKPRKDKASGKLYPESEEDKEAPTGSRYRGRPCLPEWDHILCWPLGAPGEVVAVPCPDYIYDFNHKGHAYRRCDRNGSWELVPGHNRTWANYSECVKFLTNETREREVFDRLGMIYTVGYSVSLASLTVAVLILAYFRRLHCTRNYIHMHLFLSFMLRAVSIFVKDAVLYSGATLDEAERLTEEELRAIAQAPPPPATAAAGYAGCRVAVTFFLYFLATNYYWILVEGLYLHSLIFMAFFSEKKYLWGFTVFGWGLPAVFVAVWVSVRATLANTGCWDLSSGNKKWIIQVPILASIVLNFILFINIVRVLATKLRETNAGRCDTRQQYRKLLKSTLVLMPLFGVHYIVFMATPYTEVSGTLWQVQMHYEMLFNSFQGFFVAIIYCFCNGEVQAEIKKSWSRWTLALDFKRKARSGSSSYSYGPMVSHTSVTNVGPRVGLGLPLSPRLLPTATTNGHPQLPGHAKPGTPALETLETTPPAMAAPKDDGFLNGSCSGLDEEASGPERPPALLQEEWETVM
Assay: In vitro cAMP signal activity in HKRK-B7 cells (LLC-PK1 cells overexpressing the human PTH1 receptor)
Format: cell-based
Conditions: HKRK-B7 cells; compound at 1×10^−3 M; cAMP produced as percentage of that produced by hPTH(1-34) at 100 nM
So basically: cAMP production activity (%) at 70% or higher? That is Criterion met. Lower than 70%? That is Criterion not met.

| molecule | category.label |
| --- | --- |
| Cc1cc(N2C(=O)CC[C@@H]2CNC(C)C)cc(C)c1/C=C/S(=O)(=O)N1CCC2(CC1)N=C(c1cccc(OC(F)(F)F)c1)NC2=O | Criterion not met |
| CC[C@H]1CC[C@H](C2=NC3(CCN(S(=O)(=O)CCc4ccc(NC5=NCCS5)cc4C)CC3)C(=O)N2)CC1 | Criterion met |
| O=C1NC(C2CCCCC2)=NC12CCN(S(=O)(=O)CCc1cccc3c1ccn3CCCCO)CC2 | Criterion not met |
| Cc1cc(N(C)C(N)=O)cc(C)c1/C=C/[S@TB4](=O)(=O)N1CCC2(CC1)N=C(CCCCCCCCCCCF)NC2=O | Criterion met |
| O=C1NC(c2cccc(OC(F)(F)F)c2)=NC12CCN(S(=O)(=O)CCc1cccc3cnccc13)CC2 | Criterion not met |
| Cc1cc(C(=O)N(C)C)cc(C)c1CCS(=O)(=O)N1CCC2(CC1)N=C(C1CCC(C)CC1)NC2=O (stereo not shown) | Criterion met |
| Cc1cc(C(=O)N(C)C)ccc1CCS(=O)(=O)N1CCC2(CC1)N=C(C1CCC(CCCC(F)(F)F)CC1)NC2=O (stereo not shown) | Criterion met |
